- System: 22rv1
- MEASUREMENT_DESCRIPTION: Effect on 22rv1 cell viability
- COND: 0.5 μM
Binary classification by % Cell Viability of 22rv1 at 0.5 μM, with 30% as an inclusive lower bound for MET; all other cases are NOT MET.

Textbook exercise: given the entry CCCOC(=O)c1ccc(CNC(=O)c2cccc(-c3cc(O)c4ncccc4c3)c2)cc1 [Compound 17e] , state whether its % Cell Viability of 22rv1 at 0.5 μM is greater than or equal to 30%.
NOT MET

And for CN(C)c1ccc(CNC(=O)c2cccc(-c3cc(O)c4ncccc4c3)c2)cc1 [Compound 15t] ?
NOT MET

# iterate: CC(C)NC(=O)c1ccc(CNC(=O)c2cccc(-c3cc(O)c4ncccc4c3)c2)cc1 [Compound 17g]
MET

// repeat for O=C(NCc1ccccc1-c1ccc(CN2CCCC2=O)cc1)c1cccc(-c2cc(O)c3ncccc3c2)c1 [Compound 16j] and report
NOT MET

Follow-up item: O=C(NCc1ccc(C(=O)NC2CCCCC2)cc1)c1cccc(-c2cc(O)c3ncccc3c2)c1 [Compound 17j]
NOT MET

Also O=C(NCc1cccc(-c2ccccc2)c1)c1cccc(-c2cc(O)c3ncccc3c2)c1 [Compound 16h] , if possible.
NOT MET

Same lookup for O=C(NCc1cccc(-c2ccc(F)cc2)c1)c1cccc(-c2cc(O)c3ncccc3c2)c1 [Compound 16i] , please.
MET

Entry to check: CCOC(=O)c1ccc(CNC(=O)c2cccc(-c3cc(O)c4ncccc4c3)c2)cc1 [Compound 17d]
NOT MET

Now try O=C(NCc1ccc(C(=O)NC2CCCCCC2)cc1)c1cccc(-c2cc(O)c3ncccc3c2)c1 [Compound 17k] .
NOT MET

One more molecule: CC(C)CNC(=O)c1ccc(CNC(=O)c2cccc(-c3cc(O)c4ncccc4c3)c2)cc1 [Compound 17f]
MET

Check O=C(NCc1ccc(C(=O)c2ccccc2)cc1)c1cccc(-c2cc(O)c3ncccc3c2)c1 [Compound 16k] too.
NOT MET

Check NC(=O)c1ccc(CNC(=O)c2cccc(-c3cc(O)c4ncccc4c3)c2)cc1 [Compound 17b] too.
MET

* * *

- System: LNCaP and 22rv1 cell lines
- MEASUREMENT_DESCRIPTION: SAR statements on LNCaP and 22rv1 cell lines
- Assay type: cell-based
- COND: LNCaP 1 μM, 22rv1 0.5 μM
MEASURED_PROPERTY: activity on cell lines, in words (SAR)

INSERT INTO measurements (compound, meas_value) VALUES
  ('CC(C)NC(=O)c1ccc(CNC(=O)c2cccc(-c3cc(O)c4ncccc4c3)c2)cc1 [Compound 17g]', 'proved useful'),
  ('CC(C)CNC(=O)c1ccc(CNC(=O)c2cccc(-c3cc(O)c4ncccc4c3)c2)cc1 [Compound 17f]', 'proved useful'),
  ('O=C(NCc1ccc(C(=O)NC2CCCCCC2)cc1)c1cccc(-c2cc(O)c3ncccc3c2)c1 [Compound 17k]', 'loss of activity'),
  ('O=C(NCc1ccc(C(=O)NC2CCCC2)cc1)c1cccc(-c2cc(O)c3ncccc3c2)c1 [Compound 17i]', 'loss of activity');

* * *

- Test system: LnCap cells
- MEASUREMENT_DESCRIPTION: Effect on LnCap cell viability
- COND: 1 μM
Kindly state % Cell Viability of LnCap cells at 1 μM for each of the entries shown.

Item O=C(NCc1cccc(-c2ccc(F)cc2)c1)c1cccc(-c2cc(O)c3ncccc3c2)c1 [Compound 16i] has what recorded % Cell Viability of LnCap cells at 1 μM?
17.3%

Also O=C(NCc1cccc(O)c1)c1cccc(-c2cc(O)c3ncccc3c2)c1 [Compound 15e] , if possible.
87.9%

Item: O=C(NCc1ccccc1O)c1cccc(-c2cc(O)c3ncccc3c2)c1 [Compound 15f]
56.9%

For COc1ccc(CNC(=O)c2cccc(-c3cc(O)c4ncccc4c3)c2)cc1OC [Compound 15l] then?
75.7 (B-3, ND) %

What do you have for O=C(NCc1ccccc1-c1ccc(CN2CCCC2=O)cc1)c1cccc(-c2cc(O)c3ncccc3c2)c1 [Compound 16j] ?
10.9%

Repeat for the following compound: CC1Cc2ccc(-c3ccc(CNC(=O)c4cccc(-c5cc(O)c6ncccc6c5)c4)cc3)cc2O1 (centres unmarked) [Compound 16g]
30.0%

And what about the compound N#Cc1ccc(CNC(=O)c2cccc(-c3cc(O)c4ncccc4c3)c2)cc1 [Compound 15s] ?
52.8% (B-3, ND)

Param item: O=C(NCc1ccc(C(=O)c2ccccc2)cc1)c1cccc(-c2cc(O)c3ncccc3c2)c1 [Compound 16k]
26.7 (B-3, ND) %

Queued: O=C(NCc1ccc(C(F)(F)F)cc1)c1cccc(-c2cc(O)c3ncccc3c2)c1 [Compound 15m]
67.7%

Let us now turn to O=C(NCc1ccc(C(F)(F)F)cc1F)c1cccc(-c2cc(O)c3ncccc3c2)c1 [Compound 15r]
101%

Next record, please: O=C(NCc1cccc(C(F)(F)F)c1)c1cccc(-c2cc(O)c3ncccc3c2)c1 [Compound 15n]
75.4%

Also COc1cc(CNC(=O)c2cccc(-c3cc(O)c4ncccc4c3)c2)cc(OC)c1OC [Compound 15k] , if possible.
98.1 (B-3, ND) %

And for O=C(NCc1ccc(F)cc1)c1cccc(-c2cc(O)c3ncccc3c2)c1 [Compound 15a] ?
72.8%

Check CN(C)c1ccc(CNC(=O)c2cccc(-c3cc(O)c4ncccc4c3)c2)cc1 [Compound 15t] too.
66.3%

How about O=C(NCc1ccc(C(=O)N[C@H]2CC[C@H](C(F)(F)F)CC2)cc1)c1cccc(-c2cc(O)c3ncccc3c2)c1 [Compound 17m] ?
24.2%

Input O=C(NCc1ccc(-c2ccc(C(F)(F)F)cc2)cc1)c1cccc(-c2cc(O)c3ncccc3c2)c1 [Compound 16f]
44.2%

Param item: COc1ccc(CNC(=O)c2cccc(-c3cc(O)c4ncccc4c3)c2)cc1 [Compound 15g]
68.4%

Try the compound COc1cccc(CNC(=O)c2cccc(-c3cc(O)c4ncccc4c3)c2)c1 [Compound 15h]
88.5% (B-3, ND)

Follow-up entry: O=C(NCC1CC1)c1cccc(-c2cc(O)c3ncccc3c2)c1 [Compound 15w]
60.7%

// query: O=C(NCc1ccc(C(=O)NC2CCC(C(F)(F)F)CC2)cc1)c1cccc(-c2cc(O)c3ncccc3c2)c1 (centres unmarked) [Compound 17l]
24.2%

And the next one, O=C(NCc1ccccc1C(F)(F)F)c1cccc(-c2cc(O)c3ncccc3c2)c1 [Compound 15o] ?
94.5%

What about this compound? O=C(NCc1cccc(-c2ccccc2)c1)c1cccc(-c2cc(O)c3ncccc3c2)c1 [Compound 16h]
21.8%

// repeat for O=C(NCc1ccncc1)c1cccc(-c2cc(O)c3ncccc3c2)c1 [Compound 15u] and report
70.9%

Quick one: O=C(NCc1cccs1)c1cccc(-c2cc(O)c3ncccc3c2)c1 [Compound 15v]
79.8%

Can you check O=C(NCc1cc(C(F)(F)F)cc(C(F)(F)F)c1)c1cccc(-c2cc(O)c3ncccc3c2)c1 [Compound 15p] next?
62.5%

Okay, and O=C(NCC1CCCCC1)c1cccc(-c2cc(O)c3ncccc3c2)c1 [Compound 15x] ?
104% (B-3, ND)
